# Tested on: HeLa MZ
# experiment notes: whole-cell filipin (free cholesterol) integrated intensity, Z-score; higher = more cholesterol staining
# condition notes: compound concentration in added solution (µM; 5 µl added to 20 µl cells): 10; 18 h
Where a name gives a salt, the structure may show the parent alone.

compound: CC(=O)[C@H]1CC[C@H]2[C@@H]3CCC4=CC(=O)CC[C@]4(C)[C@H]3CC[C@]12C
whole-cell filipin (z-score): 0.873
//
compound: Nc1cc(N2CCCCC2)nc(N)[n+]1[O-]
whole-cell filipin (z-score): 0.345
//
compound: Cc1c(NC(C)C)c(=O)n(-c2ccccc2)n1C [Isopyrin hydrochloride]
whole-cell filipin (z-score): -0.424
//
compound: O=C(O)Cc1sc(-c2ccccc2)nc1-c1ccc(Cl)cc1
whole-cell filipin (z-score): -0.504
//
compound: CC[C@H]1OC(=O)[C@H](C)[C@@H](O[C@H]2C[C@@](C)(OC)[C@@H](O)[C@H](C)O2)[C@H](C)[C@@H](O[C@@H]2O[C@H](C)C[C@H](N(C)C)[C@H]2O)[C@](C)(O)C[C@@H](C)C(=O)[C@H](C)[C@@H](O)[C@]1(C)O
whole-cell filipin (z-score): -0.0449
//
compound: C[C@H](CCC(=O)O)[C@H]1CC[C@H]2[C@@H]3CC[C@@H]4C[C@H](O)CC[C@]4(C)[C@H]3CC[C@]12C
whole-cell filipin (z-score): 0.929
//
compound: CCOc1ccc2ccccc2c1C(=O)N[C@@H]1C(=O)N2[C@@H]1SC(C)(C)[C@@H]2C(=O)O [Nafcillin sodium salt monohydrate]
whole-cell filipin (z-score): -0.195
//
compound: CC(=O)Oc1ccccc1C(=O)O
whole-cell filipin (z-score): -0.536
//
compound: CC(N/C(=N\C#N)Nc1ccncc1)C(C)(C)C (stereo unspecified)
whole-cell filipin (z-score): -0.503
//
compound: O=C1CCC(N2C(=O)c3ccccc3C2=O)C(=O)N1 (stereo unspecified) [Thalidomide]
whole-cell filipin (z-score): -1.09
//
compound: Cc1ccc(Cl)c(Nc2ccccc2C(=O)O)c1Cl [Meclofenamic acid sodium salt monohydrate]
whole-cell filipin (z-score): -0.416
//
compound: OCCOCCN1CCN(C2=Nc3ccccc3Sc3ccccc32)CC1
whole-cell filipin (z-score): -0.549
//
compound: NS(=O)(=O)c1cc2c(cc1Cl)NC(CC1CCCC1)NS2(=O)=O (stereo unspecified) [Cyclopenthiazide]
whole-cell filipin (z-score): -0.467
//
compound: Nc1ncnc2c1ncn2[C@@H]1O[C@H](CO)[C@@H](O)[C@@H]1O
whole-cell filipin (z-score): 0.669
//
compound: CC(C)n1c(/C=C/C(O)CC(O)CC(=O)O)c(-c2ccc(F)cc2)c2ccccc21 (stereo unspecified) [Fluvastatin sodium salt]
whole-cell filipin (z-score): -0.754
//
compound: NS(=O)(=O)c1cc2c(cc1C(F)(F)F)NCNS2(=O)=O [Hydroflumethiazide]
whole-cell filipin (z-score): -0.664

---

# Tested on: A431
# experiment notes: whole-cell filipin (free cholesterol) integrated intensity, Z-score; higher = more cholesterol staining
# condition notes: compound concentration in added solution (µM; 5 µl added to 20 µl cells): 10; 18 h
Structures can show the parent of a compound that is named as a salt.
In this section we review reported whole-cell filipin (z-score) values for a set of molecules.

molecule: CN(C)CCC(c1ccc(Cl)cc1)c1ccccn1 (centres undefined) [Chlorpheniramine maleate]
whole-cell filipin (z-score): -0.45

molecule: CC(C)(C)NCC(O)c1ccc(O)c(CO)c1 (centres undefined)
whole-cell filipin (z-score): 0.022

molecule: Cn1c(=O)c2c(ncn2CC2OCCO2)n(C)c1=O
whole-cell filipin (z-score): -0.207

molecule: Nc1c2c(nc3ccccc13)CCCC2 [Tacrine hydrochloride]
whole-cell filipin (z-score): -0.59

molecule: Clc1cc(Cl)c(OCC#CI)cc1Cl
whole-cell filipin (z-score): -0.945

molecule: CC(COc1ccccc1)NC(C)C(O)c1ccc(O)cc1 (centres undefined) [Isoxsuprine hydrochloride]
whole-cell filipin (z-score): -0.214

molecule: Nc1ccc(C(=O)O)c(O)c1
whole-cell filipin (z-score): -0.159

molecule: CN1CCC(=C2c3ccccc3C=Cc3ccccc32)CC1 [Cyproheptadine hydrochloride]
whole-cell filipin (z-score): 1.01

molecule: CN1CC2c3ccccc3Oc3ccc(Cl)cc3C2C1 (centres undefined) [Asenapine maleate]
whole-cell filipin (z-score): 0.865

molecule: Oc1ccc(OCc2ccccc2)cc1
whole-cell filipin (z-score): 2.23

molecule: COc1cc2nc(N3CCN(C(=O)C4COc5ccccc5O4)CC3)nc(N)c2cc1OC (centres undefined) [Doxazosin mesylate]
whole-cell filipin (z-score): 2.89

molecule: COc1ccc(OC)c(C(O)CNC(=O)CN)c1 (centres undefined) [Midodrine hydrochloride]
whole-cell filipin (z-score): -0.887

molecule: Cc1ccc(N(CC2=NCCN2)c2cccc(O)c2)cc1 [Phentolamine hydrochloride]
whole-cell filipin (z-score): -0.578

molecule: CN(C)CCC[C@@]1(c2ccc(F)cc2)OCc2cc(C#N)ccc21
whole-cell filipin (z-score): 0.0689

molecule: Cc1cc(-n2c(=O)[nH]c(=O)n(C)c2=O)ccc1Oc1ccc(SC(F)(F)F)cc1
whole-cell filipin (z-score): -0.109

molecule: Cc1scc2c1N(C(=O)CN1CCN(C)CC1)c1ccccc1NC2=O [Telenzepine dihydrochloride]
whole-cell filipin (z-score): -0.931

molecule: COc1ccc(C(=O)NCc2cccnc2)cc1C(=O)NCc1cccnc1 [Picotamide monohydrate]
whole-cell filipin (z-score): -0.472

molecule: Nc1ccc(S(=O)(=O)Nc2ccc(Cl)nn2)cc1
whole-cell filipin (z-score): -0.227

molecule: CC(=O)Oc1ccccc1C(=O)Oc1ccccc1C(=O)O
whole-cell filipin (z-score): -0.583
